assay: Urinary concentrations of NNI compounds in wild raccoons; assay type: in vivo, raccoon, Procyon lotor; conditions: raccoon urine, creatinine‐adjusted, n = 59
Record form. Attribute: Percentile 100th urinary concentration. Fill in for each entry.
Answers are plain numbers, in µg/g creatinine.

Molecule	Percentile 100th urinary concentration (µg/g creatinine)
CN/C(=N/CC1CCOC1)N[N+](=O)[O-] (stereo not drawn)	10.28

Attention now turns to another entry.
Input: Name the reported Percentile 100th urinary concentration value associated with the molecule CN1COCN(Cc2cnc(Cl)s2)/C1=N\[N+](=O)[O-]
Output: 6.96

---

experiment: Urinary concentrations of NNI compounds in wild raccoons; assay type: in vivo, raccoon, Procyon lotor; details: Raccoons: present study (n = 59)
Measurement Type: Mean urinary neonicotinoid concentration (µg/g creatinine)
Give bare numbers, in µg/g creatinine.

Guide cases for Mean urinary neonicotinoid concentration, answers given:
Compound	Mean urinary neonicotinoid concentration / µg/g creatinine
N#C/N=C1\SCCN1Cc1ccc(Cl)nc1	0.09
CN/C(=N/CC1CCOC1)N[N+](=O)[O-] (centres unmarked)	0.74
CN1COCN(Cc2cnc(Cl)s2)/C1=N\[N+](=O)[O-]	0.29

Your task in this section: give Mean urinary neonicotinoid concentration for each listed record.
1. C/C(=N\C#N)N(C)Cc1ccc(Cl)nc1
2. CCN(Cc1ccc(Cl)nc1)/C(=C/[N+](=O)[O-])NC
3. C/C(=N\C#N)NCc1ccc(Cl)nc1
4. O=[N+]([O-])NC1=NCCN1Cc1ccc(Cl)nc1
5. CN/C(=N\[N+](=O)[O-])NCc1cnc(Cl)s1

Output:
[0.28, 0, 2.48, 0.23, 0.81]
